Entries and their measured IC50 follow.
- Test system: SARS-CoV-2 "NRC-03-nhCoV" virus
- ASSAY COMMENT: Inhibitory concentration 50 (IC50) determination, virus-induced cytopathic effect in Vero-E6 cells, crystal violet
- Format: cell-based
- STATED CONDITIONS: Severe acute respiratory syndrome coronavirus 2, Vero C1008, 72 h, NRC-03-nhCoV in Vero E6, 72 h, reduction of CPE by 50%; read-out: IC50
Answer with a number only, understood to be in µM.

Example compounds with recorded IC50:
[[record]]
compound = "COc1ccc(-n2cc(COC(=O)[C@]34CCC(C)(C)CC3C3=CCC5[C@@]6(C)C[C@@H](O)[C@H](OCc7cn(-c8ccc(OC)cc8)nn7)C(C)(C)C6CC[C@@]5(C)[C@]3(C)CC4)nn2)cc1 (stereo partly shown) [Compound 13]"
measured_property = "IC50"
observed = 159

[[record]]
compound = "CC1(C)CC[C@]2(C(=O)OCc3cc(-c4ccc(Cl)cc4)no3)CC[C@]3(C)C(=CCC4[C@@]5(C)C[C@@H](O)[C@H](O)C(C)(C)C5CC[C@]43C)C2C1 (stereo partly shown) [Compound 17]"
measured_property = "IC50"
observed = 4.12

[[record]]
compound = "Cc1cccc(-n2nncc2COC(=O)[C@]23CCC(C)(C)CC2C2=CCC4[C@@]5(C)CC[C@H](O)C(C)(C)C5CC[C@@]4(C)[C@]2(C)CC3)c1 (stereo partly shown) [Compound 8]"
measured_property = "IC50"
observed = 174


Attention now shifts to the item below.
Report IC50 for C#CCOC(=O)[C@]12CCC(C)(C)CC1C1=CCC3[C@@]4(C)C[C@@H](O)[C@H](OCC#C)C(C)(C)C4CC[C@@]3(C)[C@]1(C)CC2 (stereo partly shown) [Compound 6]
135
